# Substrate: NC(=O)OP(=O)(O)O
# Measurement protocol: purified protein
# Assay type: biochemical, Escherichia coli
# Experimental context: 50 mM Tris pH 8.5, 20 °C, 20 mM NaCl, ornithine 3 mM
Use satisfied when the recorded kcat/Km is no lower than 30000 M⁻¹ s⁻¹; use not satisfied when it is lower.

Worked cases, answers included:
| Protein | Class assignment |
| --- | --- |
| Escherichia coli ornithine transcarbamoylase (OTC) variant D231A, His-tagged (enzyme, E. coli, Anabolic ornithine transcarbamoylase of E. coli, argI gene, 333-residue subunit; Made by site-directed mutagenesis of the ASKA pCA24N plasmid; 6x-His tag not cleaved; source: E. coli BL21 (DE3) Tuner, purified (HisTrap FF, Superdex 200 SEC)) SGFYHKHFLKLLDFTPAELNSLLQLAAKLKADKKSGKEEAKLTGKNIALIFEKDSTRTRCSFEVAAYDQGARVTYLGPSGSQIGHKESIKDTARVLGRMYDGIQYRGYGQEIVETLAEYASVPVWNGLTNEFHPTQLLADLLTMQEHLPGKAFNEMTLVYAGDARNNMGNSMLEAAALTGLDLRLVAPQACWPEAALVTECRALAQQNGGNITLTEDVAKGVEGADFIYTAVWVSMGEAKEKWAERIALLREYQVNSKMMQLTGNPEVKFLHCLPAFHDDQTTLGKKMAEEFGLHGGMEVTDEVFESAASIVFDQAENRMHTIKAVMVATLSK | not satisfied |
| OTC (E. coli ornithine transcarbamoylase, argI) (Escherichia coli K-12; R58A) (protein, full length, uncleaved 6xHis tag, pCA24N ASKA clone, expressed in BL21(DE3) Tuner; homotrimer of 333-residue subunits) SGFYHKHFLKLLDFTPAELNSLLQLAAKLKADKKSGKEEAKLTGKNIALIFEKDSTATRCSFEVAAYDQGARVTYLGPSGSQIGHKESIKDTARVLGRMYDGIQYRGYGQEIVETLAEYASVPVWNGLTNEFHPTQLLADLLTMQEHLPGKAFNEMTLVYAGDARNNMGNSMLEAAALTGLDLRLVAPQACWPEAALVTECRALAQQNGGNITLTEDVAKGVEGADFIYTDVWVSMGEAKEKWAERIALLREYQVNSKMMQLTGNPEVKFLHCLPAFHDDQTTLGKKMAEEFGLHGGMEVTDEVFESAASIVFDQAENRMHTIKAVMVATLSK | not satisfied |
| Escherichia coli ornithine transcarbamoylase (OTC), wild type, His-tagged (enzyme, E. coli, Anabolic ornithine transcarbamoylase of E. coli, argI gene, 333-residue subunit; Expressed from the ASKA plasmid pCA24N; also called WT OTC; anabolic OTC; source: E. coli BL21 (DE3) Tuner, purified (HisTrap FF, Superdex 200 SEC)) SGFYHKHFLKLLDFTPAELNSLLQLAAKLKADKKSGKEEAKLTGKNIALIFEKDSTRTRCSFEVAAYDQGARVTYLGPSGSQIGHKESIKDTARVLGRMYDGIQYRGYGQEIVETLAEYASVPVWNGLTNEFHPTQLLADLLTMQEHLPGKAFNEMTLVYAGDARNNMGNSMLEAAALTGLDLRLVAPQACWPEAALVTECRALAQQNGGNITLTEDVAKGVEGADFIYTDVWVSMGEAKEKWAERIALLREYQVNSKMMQLTGNPEVKFLHCLPAFHDDQTTLGKKMAEEFGLHGGMEVTDEVFESAASIVFDQAENRMHTIKAVMVATLSK | satisfied |
| OTC (E. coli ornithine transcarbamoylase, argI) (Escherichia coli K-12; E300Q) (protein, full length, uncleaved 6xHis tag, pCA24N ASKA clone, expressed in BL21(DE3) Tuner; homotrimer of 333-residue subunits) SGFYHKHFLKLLDFTPAELNSLLQLAAKLKADKKSGKEEAKLTGKNIALIFEKDSTRTRCSFEVAAYDQGARVTYLGPSGSQIGHKESIKDTARVLGRMYDGIQYRGYGQEIVETLAEYASVPVWNGLTNEFHPTQLLADLLTMQEHLPGKAFNEMTLVYAGDARNNMGNSMLEAAALTGLDLRLVAPQACWPEAALVTECRALAQQNGGNITLTEDVAKGVEGADFIYTDVWVSMGEAKEKWAERIALLREYQVNSKMMQLTGNPEVKFLHCLPAFHDDQTTLGKKMAEEFGLHGGMQVTDEVFESAASIVFDQAENRMHTIKAVMVATLSK | not satisfied |

Continue with the protein presented below.
Threshold query (kcat/Km >= 30000 M⁻¹ s⁻¹) on OTC (E. coli ornithine transcarbamoylase, argI) (Escherichia coli K-12; H273L) (protein, full length, uncleaved 6xHis tag, pCA24N ASKA clone, expressed in BL21(DE3) Tuner; homotrimer of 333-residue subunits) SGFYHKHFLKLLDFTPAELNSLLQLAAKLKADKKSGKEEAKLTGKNIALIFEKDSTRTRCSFEVAAYDQGARVTYLGPSGSQIGHKESIKDTARVLGRMYDGIQYRGYGQEIVETLAEYASVPVWNGLTNEFHPTQLLADLLTMQEHLPGKAFNEMTLVYAGDARNNMGNSMLEAAALTGLDLRLVAPQACWPEAALVTECRALAQQNGGNITLTEDVAKGVEGADFIYTDVWVSMGEAKEKWAERIALLREYQVNSKMMQLTGNPEVKFLLCLPAFHDDQTTLGKKMAEEFGLHGGMEVTDEVFESAASIVFDQAENRMHTIKAVMVATLSK
not satisfied
